# protocolText: Human HepG2 cell viability assay in 384 well format
# Format: toxicity, cell-based
# Design: dose 125 nL, time 70.5 hour; concentration not given beside the values
# assayContext: HepG2 cells, read-out: Inhibition
reportedEndpoint: cytotoxicity at 70.5 h (%)
Write down the numeric answer in % and omit the unit.

>  <substanceSmiles>
COCC(=O)N(C)Cc1ccc(F)c(F)c1

>  <reportedEndpoint>
cytotoxicity at 70.5 h

>  <unitOfMeasurement>
%

>  <obsValue>
28.3

$$$$
>  <substanceSmiles>
Cc1ccc(CN(Cc2ccccn2)C2CC(C)(C)NC(C)(C)C2)s1

>  <reportedEndpoint>
cytotoxicity at 70.5 h

>  <unitOfMeasurement>
%

>  <obsValue>
-7.96

$$$$
>  <substanceSmiles>
CN(Cc1ccoc1)c1ccc(-c2nccn2C)nn1

>  <reportedEndpoint>
cytotoxicity at 70.5 h

>  <unitOfMeasurement>
%

>  <obsValue>
26.2

$$$$

## Task What does the record list as cytotoxicity at 70.5 h for Cc1csc(CN2CC[C@H]3C[C@H](c4noc(C)n4)O[C@@H]3C2)n1 ?
## Result -9.71

## Task What does the record list as cytotoxicity at 70.5 h for CCc1nc2c(c(NCc3cc(-c4cccnc4)no3)n1)CCNCC2 ?
## Result 7.07

## Task What does the record list as cytotoxicity at 70.5 h for COc1ccc(F)c(NCC(C)(C)S(C)(=O)=O)c1 ?
## Result -4.68
